Source listed as paper PMC9482650.

Assay Target: T1, PARD3B_1, Q8TEW8
T1 sequence (Q8TEW8 196-299, limits assumed, looked up): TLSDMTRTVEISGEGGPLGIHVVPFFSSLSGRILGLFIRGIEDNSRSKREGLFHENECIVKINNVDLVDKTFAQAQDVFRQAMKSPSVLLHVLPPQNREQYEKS
Assay Method Text: holdup assay
Set-up: key: below the threshold = too weak to quantify, mostly under pKd 3.1 to 4
Study Conditions: plain residues with an end cap or a label only (N-terminal biotin on a linker: ado-ado)
Readout Type: pKd

Solved cases (5 shown):
QKASRNESTF [POLR1D, P0DPB6]    4.05
IGHEDLETAV [DGKI, O75912]    below the threshold
KAEEKPPSKV [SCN4B, Q8IWT1]    below the threshold
PEKVSNTTVV [IGSF5, Q9NSI5]    below the threshold
KEKASTETEC [TRPM1, Q7Z4N2]    3.97

For each of the items listed, what is its pKd?
1. GVHSNDHSVV [LPAR1, Q92633]
2. QLGSPTADLA [SIPA1, Q96FS4]

1: below the threshold; 2: below the threshold
